Biological target: hPPARgamma (Homo sapiens, UniProt P37231)
Construct: expressed in transfected cells; host or cells: COS-7 (monkey kidney fibroblasts)
Sequence (P37231 238-503 limits assumed): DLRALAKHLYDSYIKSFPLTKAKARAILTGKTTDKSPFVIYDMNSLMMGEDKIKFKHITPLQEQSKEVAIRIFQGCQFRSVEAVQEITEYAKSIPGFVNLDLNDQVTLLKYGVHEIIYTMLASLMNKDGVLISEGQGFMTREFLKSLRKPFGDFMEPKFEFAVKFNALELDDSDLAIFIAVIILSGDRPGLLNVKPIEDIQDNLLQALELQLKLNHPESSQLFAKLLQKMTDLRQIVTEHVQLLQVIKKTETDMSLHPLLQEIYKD
Experiment: PPAR activation: Gal4-hPPARγ chimera luciferase transactivation in COS-7 cells, Method 1
Type: cell-based
Details: COS-7, 24 h
pEC50: −log10 of the molar value.
endpoint: pEC50

>>> experimentalvalue("CCC(Oc1ccc(CCC(OCc2ccccc2)c2ccc(-c3ccc(C(F)(F)F)cc3)s2)cc1F)C(=O)O (stereo not shown)")
6.01

[A] CC(C)(Oc1ccc(CCC(=NO)c2ccc(-c3ccc(C(F)(F)F)cc3)s2)c(Cl)c1Cl)C(=O)O (mixture of isomers)
[B] CC(C)(Oc1ccc(CCC(=O)c2ccc(-c3ccc(C(F)(F)F)cc3)s2)cc1Cl)C(=O)O
[C] CC(C)(Oc1ccc(CCC(=O)c2cc(-c3ccc(C(F)(F)F)cc3)cs2)c(Cl)c1Cl)C(=O)O
query: List the 3 entries from lowest pEC50 to highest pEC50 value. Return the labels ranked in the requested order, please.
result: C, A, B
(C: 5.93, A: 6.18, B: 6.74)

* * *

Target: hPPARalpha (Homo sapiens)
Construct: expressed in transfected cells; host or cells: COS-7 (monkey kidney fibroblasts)
Sequence (Q07869 239-466 limits assumed): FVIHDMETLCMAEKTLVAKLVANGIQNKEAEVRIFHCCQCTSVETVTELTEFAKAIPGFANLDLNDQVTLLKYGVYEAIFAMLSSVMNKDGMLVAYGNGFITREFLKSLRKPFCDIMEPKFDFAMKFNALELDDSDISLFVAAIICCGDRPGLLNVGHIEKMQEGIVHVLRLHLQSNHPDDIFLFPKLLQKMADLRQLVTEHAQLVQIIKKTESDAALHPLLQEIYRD
Test: PPAR activation: Gal4-hPPARα chimera luciferase transactivation in COS-7 cells, Method 1
Type: cell-based
Conditions: COS-7, 24 h, maximum percentage response relative to the reference phenofibric acid, read-out: hPPARalpha % max
endpoint: Emax (%)

Worked examples, 5 compounds total:
>>> experimentalvalue("O=C(O)COc1ccc(CCC(=O)c2ccc(-c3ccc(C(F)(F)F)cc3)s2)c(Cl)c1Cl")
46
>>> experimentalvalue("O=C(O)COc1ccc(CCC(OCc2ccccc2)c2ccc(-c3ccc(C(F)(F)F)cc3)s2)cc1F (stereo not shown)")
47
>>> experimentalvalue("CC(C)(Oc1ccc(CCC(O)c2ccc(-c3ccc(C(F)(F)F)cc3)s2)c(Cl)c1Cl)C(=O)O (stereo not shown)")
50
>>> experimentalvalue("CC(C)(Oc1ccc(CCC(=O)c2ccc(-c3ccc(OC(F)(F)F)cc3)s2)c(Cl)c1Cl)C(=O)O")
54
>>> experimentalvalue("CC(C)(Oc1ccc(CCC(=O)c2ccc(-c3ccc(C(F)(F)F)cc3)s2)cc1F)C(=O)O")
48

[I] CC(C)(CCCOc1ccc(CCC(=O)c2ccc(-c3ccc(C(F)(F)F)cc3)s2)c(Cl)c1Cl)C(=O)O
[II] CC(C)(Oc1ccc(CCC(OCc2ccccc2)c2cc(-c3ccc(C(F)(F)F)cc3)cs2)c(Cl)c1Cl)C(=O)O (stereo not shown)
query: Between I and II , whose recorded Emax is greater? // return label of chosen record
result: II

[a] CC(C)(Oc1ccc(CCC(=O)c2cc(-c3ccc(C(F)(F)F)cc3)cs2)c(Cl)c1Cl)C(=O)O
[b] CCC(Oc1ccc(CCC(=O)c2ccc(-c3ccc(C(F)(F)F)cc3)s2)cc1F)C(=O)O (stereo not shown)
query: Between a and b , whose recorded Emax is greater? // return label of chosen record
result: b
(b: 56%, a: 39%)

* * *

Biological target: hPPARgamma (Homo sapiens, UniProt P37231)
Construct: expressed in transfected cells; host or cells: COS-7 (monkey kidney fibroblasts)
Assay: PPAR activation: Gal4-hPPARγ chimera luciferase transactivation in COS-7 cells, Method 1
Type: cell-based
Settings: COS-7, 24 h, maximum percentage response relative to the reference rosiglitazone, read-out: hPPARgamma % max
Procedure: The activation of the PPARs was evaluated in vitro on a line of monkey kidney fibroblasts (COS-7) by measuring the transcriptional activity of chimeras constituted of the DNA binding domain of the Gal4 transcription factor of yeast and the ligand binding domain of the various PPARs. The compounds were tested at doses between 10^−5 and […] on the chimeras Gal4-PPARα, γ or δ, and the corresponding EC50 values were determined. […]
endpoint: Emax (%)

Worked examples, 4 molecules total:
>>> experimentalvalue("CCC(Oc1ccc(CCC(=O)c2ccc(-c3ccc(C(F)(F)F)cc3)s2)cc1Br)C(=O)O (stereo not shown)")
67
>>> experimentalvalue("CC(C)(Oc1ccc(CCC(=O)c2ccc(-c3ccc(C(F)(F)F)cc3)s2)cc1Cl)C(=O)O")
27
>>> experimentalvalue("CC(C)(Oc1ccc(CCC(=O)c2ccc(-c3ccc(C(F)(F)F)cc3)s2)cc1Br)C(=O)O")
63
>>> experimentalvalue("CCC(Oc1ccc(CCC(=O)c2ccc(-c3ccc(C(F)(F)F)cc3)s2)cc1)C(=O)O (stereo not shown)")
73

[1] CC(C)(Oc1ccc(CCC(=O)c2cc(-c3ccc(C(F)(F)F)cc3)cs2)c(Cl)c1Cl)C(=O)O
[2] CC(C)(Oc1ccc(CCC(O)c2ccc(-c3ccc(C(F)(F)F)cc3)s2)c(Cl)c1Cl)C(=O)O (stereo not shown)
[3] Cc1cc(CCC(=O)c2ccc(-c3ccc(C(F)(F)F)cc3)s2)cc(C)c1OC(C)(C)C(=O)O
query: Order the records by Emax, with each subsequent value no larger than the one before. Return the labels ranked in the requested order, please.
result: 3, 1, 2

* * *

Target: hPPARgamma (Homo sapiens, UniProt P37231)
Construct: expressed in transfected cells; host or cells: COS-7 (monkey kidney fibroblasts)
Assay: PPAR activation: Gal4-hPPARγ chimera luciferase transactivation in COS-7 cells, Method 1
Assay type: cell-based
Details: COS-7, 24 h
pEC50: −log10 of the molar value.
endpoint: pEC50

Worked examples, 5 compounds total:
>>> experimentalvalue("Cc1cc(CCC(=O)c2ccc(-c3ccc(C(F)(F)F)cc3)s2)cc(C)c1OC(C)(C)C(=O)O")
6.25
>>> experimentalvalue("O=C(O)COc1ccc(CCC(=O)c2ccc(-c3ccc(C(F)(F)F)cc3)s2)c(Cl)c1Cl")
5.25
>>> experimentalvalue("CC(C)(Oc1ccc(CCC(=O)c2ccc(-c3ccc(OC(F)(F)F)cc3)s2)c(Cl)c1Cl)C(=O)O")
7.00
>>> experimentalvalue("CCC(Oc1ccc(CCC(=O)c2ccc(-c3ccc(C(F)(F)F)cc3)s2)c(Cl)c1Cl)C(=O)O (stereo not shown)")
6.55
>>> experimentalvalue("CC(C)(CCCOc1ccc(CCC(=O)c2ccc(-c3ccc(C(F)(F)F)cc3)s2)c(Cl)c1Cl)C(=O)O")
6.31

[A] CC(C)(Oc1ccc(CCC(=O)c2ccc(-c3ccc(C(F)(F)F)cc3)s2)c(Cl)c1)C(=O)O
[B] CCC(Oc1ccc(CCC(=O)c2ccc(-c3ccc(C(F)(F)F)cc3)s2)cc1F)C(=O)O (stereo not shown)
query: Could you tell me which of A and B has the lower pEC50 reading? // return label of chosen record
result: B
(B: 5.90, A: 7.10)

* * *

Molecular target: hPPARalpha (Homo sapiens)
Construct: expressed in transfected cells; host or cells: COS-7 (monkey kidney fibroblasts)
Assay: PPAR activation: Gal4-hPPARα chimera luciferase transactivation in COS-7 cells, Method 1
Assay type: cell-based
Settings: COS-7, 24 h, maximum percentage response relative to the reference phenofibric acid, read-out: hPPARalpha % max
endpoint: Emax (%)

>>> experimentalvalue("CC(C)(Oc1ccc(CCC(=O)c2ccc(-c3ccc(C(F)(F)F)cc3)s2)cc1Br)C(=O)O [Compound 36]")
47
>>> experimentalvalue("CC(C)(Oc1ccc(CCC(=O)c2ccc(-c3ccc(C(F)(F)F)cc3)s2)c(Cl)c1Cl)C(=O)O [Compound 2]")
43
>>> experimentalvalue("CC(C)(Oc1ccc(CCC(=O)c2ccc(-c3ccc(C(F)(F)F)cc3)s2)cc1Cl)C(=O)O [Compound 19]")
47
>>> experimentalvalue("O=C(O)COc1ccc(CCC(=O)c2ccc(-c3ccc(C(F)(F)F)cc3)s2)cc1 [Compound 69]")
61

* * *

Molecular target: hPPARdelta (Homo sapiens, UniProt Q03181)
Construct: expressed in transfected cells; host or cells: COS-7 (monkey kidney fibroblasts)
Sequence (Q03181 211-439 limits assumed): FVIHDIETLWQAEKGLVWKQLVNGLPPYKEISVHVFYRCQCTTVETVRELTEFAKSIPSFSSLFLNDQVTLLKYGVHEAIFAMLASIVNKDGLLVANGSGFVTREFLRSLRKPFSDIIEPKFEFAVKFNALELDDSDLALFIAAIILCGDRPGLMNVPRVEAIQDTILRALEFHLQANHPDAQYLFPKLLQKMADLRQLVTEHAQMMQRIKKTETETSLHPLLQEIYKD
Assay: PPAR activation: Gal4-hPPARδ chimera luciferase transactivation in COS-7 cells, Method 2
Assay type: cell-based
Settings: COS-7, 24 h, 1% Ultroser
endpoint: EC50 (nM)

[I] Cc1cc(CCC(=O)c2ccc(-c3ccc(C(F)(F)F)cc3)s2)ccc1OC(C)(C)C(=O)O
[II] CC(C)OC(CCc1ccc(OC(C)(C)C(=O)O)c(Cl)c1Cl)c1ccc(-c2ccc(C(F)(F)F)cc2)s1 (stereo not shown)
[III] O=C(O)COc1ccc(CCC(=O)c2ccc(-c3ccc(C(F)(F)F)cc3)s2)cc1F
[IV] CC(C)(Oc1ccc(CCC(OCc2cccnc2)c2ccc(-c3ccc(C(F)(F)F)cc3)s2)c(Cl)c1Cl)C(=O)O (stereo not shown)
query: From the records above, write out the order of decreasing EC50. Return the labels ranked in the requested order, please.
result: III, II, I, IV
(III: 7450 nM, II: 4710 nM, I: 30 nM, IV: 6 nM)
